Parameter: IC50. Scope: all listed entries.
Assay method text: Inhibition of S100A4-NMII interaction (unknown origin) by HTRF analysis
Design: species or system Homo sapiens

// worked examples, IC50 included
# Compound, IC50
measured = [
    ("CN1CCCC(NC(=O)[C@H]2C[C@H](c3ccccc3)CN2C(=O)CCl)C1=O (stereo not given in full)", "< 1000 nM"),
    ("O=C(Nc1cccc(Cl)c1)[C@H]1C[C@H](c2ccccc2)CN1C(=O)CCl", "2900 nM"),
    ("N#CCc1ccc(NC(=O)[C@H]2C[C@H](c3ccccc3)CN2C(=O)CCl)cc1", "< 1000 nM"),
    ("O=C1Nc2ccccc2C1NC(=O)[C@H]1C[C@H](c2ccccc2)CN1C(=O)CCl (stereo not given in full)", "< 1000 nM"),
]

For the next question, use this compound.
stdin: Look up IC50 for this compound: COc1cccc(N2CC(NC(=O)[C@H]3C[C@H](c4ccccc4)CN3C(=O)CCl)CC2=O)c1 (stereo not given in full)
stdout: < 1000 nM
